Data origin: patent US6048540A

So I've got a bunch of compounds here, and I need their Shelf life (time that content maintains more than 90% of initial at 25° C.) values.
- procedure-text: Stability test: content on storage and shelf life
- measurement-setup: calculated with Arrehnius equation; component of prescription (b) of Example 2
Record the value in months, omitting the unit from your answer.

Input line: # query: Shelf life (time that content maintains more than 90% of initial at 25° C.) of entry Cn1c(=O)c2c(ncn2C)n(C)c1=O [Caffeine anhydrous]
Output line: 89.84

Input line: # query: Shelf life (time that content maintains more than 90% of initial at 25° C.) of entry N[C@@H](CC(=O)[O-])C(=O)[O-].O.[Na+].[Na+] [Sodium L-aspartate monohydrate]
Output line: 33.86

Input line: # query: Shelf life (time that content maintains more than 90% of initial at 25° C.) of entry CSCCC(N)C(=O)O (racemic)
Output line: 35.64

Input line: # query: Shelf life (time that content maintains more than 90% of initial at 25° C.) of entry CC(=O)Nc1ccc(O)cc1
Output line: 35.94
